- Tested on: HT-29
- assay details: 50% inhibition of incorporationf precursor [3H]thymidine into DNA HT-29 cell lines
- Type: functional, cell-based
- reported conditions: Homo sapiens, HT-29, 2 h
Starred links: 1 amine or outer side, 2 acyl side, 3 side chain; linkers in the order of their positions; H or OH if unused. Positions of bridges follow the written chain, without caps; N, C: chain ends. Non-standard residues stand in square brackets, D forms with d. Residues, ends and D or L forms follow the SMILES beside them. Chains are numbered I, II in the order given. Actinocin(9to1) = Cc1c2oc3c(C)ccc(C(=O)[*:1])c3nc-2c(C(=O)[*:2])c(N)c1=O; NMeV = CN[C@H](C(=O)O)C(C)C; Sar = CNCC(=O)O
The following molecules are shown together with reported IC50 values.
Kindly answer with a numeric value in µM, unit omitted.

Before answering, review these 3 worked examples.
molecule | unit | numeric value
Cc1c2oc3c(C)c(O)c(N)c(C(=O)N[C@@H]4C(=O)N[C@H](C(C)C)C(=O)N5CCC[C@H]5C(=O)N(C)CC(=O)N(C)[C@@H](C(C)C)C(=O)O[C@@H]4C)c3nc-2c(C(=O)N[C@@H]2C(=O)N[C@H](C(C)C)C(=O)N3CCC[C@H]3C(=O)N(C)CC(=O)N(C)[C@@H](C(C)C)C(=O)O[C@@H]2C)c(N)c1=O | µM | 0.07
Cc1c2oc3c(C)c4oc(CC(=O)NCCCCN)nc4c(C(=O)N[C@@H]4C(=O)N[C@H](C(C)C)C(=O)N5CCC[C@H]5C(=O)N(C)CC(=O)N(C)[C@@H](C(C)C)C(=O)O[C@@H]4C)c3nc-2c(C(=O)N[C@@H]2C(=O)N[C@H](C(C)C)C(=O)N3CCC[C@H]3C(=O)N(C)CC(=O)N(C)[C@@H](C(C)C)C(=O)O[C@@H]2C)c(N)c1=O | µM | 0.365
Cc1c2oc3c(C)c4oc(-c5ccccc5)nc4c(C(=O)N[C@@H]4C(=O)N[C@H](C(C)C)C(=O)N5CCC[C@H]5C(=O)N(C)CC(=O)N(C)[C@@H](C(C)C)C(=O)O[C@@H]4C)c3nc-2c(C(=O)N[C@@H]2C(=O)N[C@H](C(C)C)C(=O)N3CCC[C@H]3C(=O)N(C)CC(=O)N(C)[C@@H](C(C)C)C(=O)O[C@@H]2C)c(N)c1=O | µM | 0.58

--- query ---
## Input I'm curious: which IC50 was measured for Cc1c2oc3c(C)ccc(C(=O)N[C@@H]4C(=O)N[C@H](C(C)C)C(=O)N5CCC[C@H]5C(=O)N(C)CC(=O)N(C)[C@@H](C(C)C)C(=O)O[C@@H]4C)c3nc-2c(C(=O)N[C@@H]2C(=O)N[C@H](C(C)C)C(=O)N3CCC[C@H]3C(=O)N(C)CC(=O)N(C)[C@@H](C(C)C)C(=O)O[C@@H]2C)c(N)c1=O [DACTINOMYCIN] (I: T[dV]P[Sar][NMeV] / II: T[dV]P[Sar][NMeV]; ester I:1-I:C, II:1-II:C; linker I:N-II:N via Actinocin(9to1)) tested on HT-29?
## Output 0.9
